Target entity: murine CDH6 protein (mCDH6 ECD-his) (mouse) (UniProt P97326)
Sequence (P97326 19-615 limits assumed, form in doubt): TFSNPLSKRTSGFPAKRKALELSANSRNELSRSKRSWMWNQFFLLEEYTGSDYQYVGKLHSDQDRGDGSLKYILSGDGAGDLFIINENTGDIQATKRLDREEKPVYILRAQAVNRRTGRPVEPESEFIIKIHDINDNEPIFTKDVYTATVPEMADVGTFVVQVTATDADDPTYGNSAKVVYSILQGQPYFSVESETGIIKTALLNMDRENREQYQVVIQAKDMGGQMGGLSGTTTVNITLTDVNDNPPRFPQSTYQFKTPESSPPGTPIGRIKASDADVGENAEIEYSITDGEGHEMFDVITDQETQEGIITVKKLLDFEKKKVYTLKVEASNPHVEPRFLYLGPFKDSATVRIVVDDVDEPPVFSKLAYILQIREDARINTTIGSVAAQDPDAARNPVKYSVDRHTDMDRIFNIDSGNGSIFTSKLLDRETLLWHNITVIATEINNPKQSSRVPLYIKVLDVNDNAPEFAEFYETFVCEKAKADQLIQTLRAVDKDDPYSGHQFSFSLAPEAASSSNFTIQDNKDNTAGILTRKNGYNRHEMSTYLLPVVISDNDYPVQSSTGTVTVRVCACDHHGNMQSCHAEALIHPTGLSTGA
Experiment: ELISA, antigen coated
Recorded endpoint: pEC50
The value called pEC50 is obtained by taking minus log10 of the concentration in mol/L.

Enquiry: GET /values?readout=pEC50&item= CHI-CDH6-14 (antibody, human IgG1, kappa, V domains shown, also called CHI- hCDH6-14) VH: QIQLQQSGPELVKPGTSVKISCKASGYTFTDNYINWVRQRPGQGLEWIGWIYPGTGNSYYNEKFKGKATLTVDTSSSTAYMQFSSLTSEDSAVYLCASSYGDSFDYWGQGTTLTVSS VL: DIQMTQTTSSLSASLGNRVTISCRASQDIRNYLNWYQQKPDGTFKLLISYTSRLHSGVPSRFSGSGSGTDYSLTVSNLEPEDIATYYCQQYSQLPWTFGGGSRLEIKR
Return: 10.31
